Cited source: patent US7396837B2

Test system: IGROV-ET
MEASUREMENT NOTES: SRB colorimetric cell growth inhibition assay, IGROV-ET (ET-743 resistant)
Type: cell-based
ASSAY CONTEXT: Homo sapiens, IGROV-ET; cell killing (cytotoxic effect); read-out: LC50 IGROV-ET
# CC50 per record follows

Reference set, count: 4
chemical_string=COc1cc(-c2c3c4cc(OC)c(OC(=O)[C@H](C)NC(=O)[C@H](C)N)cc4oc(=O)c3n3ccc4c(OC(=O)[C@H](C)NC(=O)[C@H](C)N)c(OC)c(OC)cc4c23)ccc1OC(=O)[C@H](C)NC(=O)[C@H](C)N study_target=IGROV-ET observable=CC50 readout_value="6.09 µM"
chemical_string=COc1cc(-c2c3c4cc(OC)c(O)cc4oc(=O)c3n3ccc4cc(OC)c(OC)cc4c23)ccc1O study_target=IGROV-ET observable=CC50 readout_value="19.5 µM"
chemical_string=CC[C@H](C)[C@H](N)C(=O)Oc1ccc(-c2c3c4cc(OC)c(OC(=O)[C@@H](N)[C@@H](C)CC)cc4oc(=O)c3n3ccc4cc(OC(=O)[C@@H](N)[C@@H](C)CC)c(OC)cc4c23)cc1OC study_target=IGROV-ET observable=CC50 readout_value="0.345 µM"
chemical_string=COc1cc(-c2c3c4cc(OC)c(OC(=O)[C@@H]5CCCN5)cc4oc(=O)c3n3ccc4c(OC(=O)[C@@H]5CCCN5)c(OC)c(OC)cc4c23)ccc1OC(=O)[C@@H]1CCCN1 study_target=IGROV-ET observable=CC50 readout_value="6.63 µM"

Then there is this compound:
Given the entry C=CCOC(=O)N[C@@H](C)C(=O)Oc1ccc(-c2c3c4cc(OC)c(OC(=O)[C@H](C)NC(=O)OCC=C)cc4oc(=O)c3n3ccc4cc(OC(=O)[C@H](C)NC(=O)OCC=C)c(OC)cc4c23)cc1OC , what CC50 was observed with IGROV-ET?
0.92 µM
